- Test system: Adenosine A2 receptor (Homo sapiens), P29275+P29274 [W246A]
- assay: Displacement of [3H]ZM-241,385 from human N-terminal FLAG-tagged adenosine A2A receptor W246A 6.48 mutant expressed in HEK293 cell membrane assessed as radioligand residence time at 10 uM by microbeta scintillation counting method
- Assay type: cell membranes
Note to self: values exactly at 0.02 h are 1.0. So TIME at or above 0.02 h is 1.0, below is 0.0.

# compound, label class
rows = [
    ("COc1ccc(CCNc2nc(N)c(C(=O)N=C(N)N)nc2Cl)cc1.Cl", 1.0),
    ("CCOc1ccc(CCNc2nc(N)c(C(=O)N=C(N)N)nc2Cl)cc1.O=C(O)C(F)(F)F", 1.0),
    ("COc1cccc(CCNc2nc(N)c(C(=O)N=C(N)N)nc2Cl)c1.Cl", 0.0),
    ("N=C(N)NC(=O)c1nc(Cl)c(N2CCCCCC2)nc1N [N,N-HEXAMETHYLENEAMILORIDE]", 1.0),
]

---

- Tested on: HEK293
- assay: Ratio of IC50 for human N-terminal FLAG-tagged adenosine A2A receptor expressed in HEK293 cell membrane to IC50 for human N-terminal FLAG-tagged adenosine A2A receptor W246A 6.48 mutant expressed in HEK293 cell membrane
- Format: cell-based
Note to self: values exactly at 40 are fulfilled. So Ratio IC50 at or above 40 is fulfilled, below is not fulfilled.

# molecule, label class
records = [
    ("N=C(N)NC(=O)c1nc(Cl)c(N2CCCCCC2)nc1N [N,N-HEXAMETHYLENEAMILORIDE]", "not fulfilled"),
    ("CCOc1ccc(CCNc2nc(N)c(C(=O)N=C(N)N)nc2Cl)cc1.O=C(O)C(F)(F)F", "fulfilled"),
    ("COc1ccc(CCNc2nc(N)c(C(=O)N=C(N)N)nc2Cl)cc1.Cl", "not fulfilled"),
    ("COc1cccc(CCNc2nc(N)c(C(=O)N=C(N)N)nc2Cl)c1.Cl", "not fulfilled"),
    ("Cl.NC(N)=NC(=O)c1nc(Cl)c(NCCc2ccc3c(c2)OCO3)nc1N", "fulfilled"),
]

---

- test system: Adenosine receptor A2a (Homo sapiens, UniProt P29274)
- Sequence (P29274 whole entry): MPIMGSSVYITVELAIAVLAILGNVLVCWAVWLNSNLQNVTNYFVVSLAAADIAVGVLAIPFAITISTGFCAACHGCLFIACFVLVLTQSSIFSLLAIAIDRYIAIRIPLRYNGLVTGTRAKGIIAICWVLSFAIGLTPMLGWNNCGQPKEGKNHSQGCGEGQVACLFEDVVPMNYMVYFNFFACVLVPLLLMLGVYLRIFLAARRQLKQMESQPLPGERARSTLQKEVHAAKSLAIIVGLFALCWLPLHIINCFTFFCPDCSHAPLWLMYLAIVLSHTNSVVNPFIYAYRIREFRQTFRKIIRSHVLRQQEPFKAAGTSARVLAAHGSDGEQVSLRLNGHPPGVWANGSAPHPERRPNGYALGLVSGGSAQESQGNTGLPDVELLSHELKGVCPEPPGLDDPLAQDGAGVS
- assay: Displacement of [3H]ZM-241,385 from human N-terminal FLAG-tagged adenosine A2A receptor expressed in HEK293 cell membrane assessed as radioligand residence time at 100 uM by microbeta scintillation counting method
- Assay type: cell membranes
Note to self: values exactly at 0.7 h are Fulfilled. So TIME at or above 0.7 h is Fulfilled, below is Not fulfilled.

# molecule, label class
rows = [
    ("Cl.NC(N)=NC(=O)c1nc(Cl)c(NCCc2ccc3c(c2)OCO3)nc1N", "Fulfilled"),
    ("COc1ccc(CCNc2nc(N)c(C(=O)N=C(N)N)nc2Cl)cc1.Cl", "Fulfilled"),
    ("N=C(N)NC(=O)c1nc(Cl)c(N2CCCCCC2)nc1N [N,N-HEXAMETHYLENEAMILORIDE]", "Not fulfilled"),
    ("CCOc1ccc(CCNc2nc(N)c(C(=O)N=C(N)N)nc2Cl)cc1.O=C(O)C(F)(F)F", "Not fulfilled"),
]

---

Entries annotated with measured Activity
- Test system: Adenosine A2 receptor (Homo sapiens), P29275+P29274 [W246A]
- assay: Displacement of [3H]ZM-241,385 from human N-terminal FLAG-tagged adenosine A2A receptor W246A 6.48 mutant expressed in HEK293 cell membrane assessed as radioligand binding at 10 uM by microbeta scintillation counting method relative to control
- Assay type: cell membranes

# input smiles, Activity [%]
rows = [
    ("NC(N)=NC(=O)c1nc(Cl)c(NCCc2ccc(Cl)cc2)nc1N", 32),
    ("Cc1ccc(S(=O)(=O)NCCNc2nc(N)c(C(=O)NC(=N)N)nc2Cl)cc1", 32),
    ("N=C(N)NC(=O)c1nc(Cl)c(NCc2cccnc2)nc1N", 46),
    ("NC(N)=NC(=O)c1nc(Cl)c(NC2Cc3ccccc3C2)nc1N", 6.6),
]
